Reference for the values: the supplement of paper PMC10724198

Test system: Saccharomyces cerevisiae
protocol-text: protein stability index of tFT-peptide fusion in deletion strain of DAS1 (PSI (0-1 scale)); higher = more stable (slower turnover)
reported-property: protein stability index
Answers are plain numbers.

Field: example entries. Status: answers known.
> print(dat)
   entry.sequence        reported.property  result.value
1    KKHKKGQKQKNN  protein stability index         0.643
2    VSMRWTFRYWVN  protein stability index         0.509

Record protein stability index for all entries; do not skip any.
1. VRGAVGFWRLVG
2. VRGAVGGWRLAG
3. VRGAVGGWRLVGT
4. ARWRVGLWRGASM
5. LDILRQKMNHQN

1: 0.687; 2: 0.695; 3: 0.689; 4: 0.639; 5: 0.707

Record protein stability index for all entries; do not skip any.
1. KKHKKGDKQKIN
2. LVVYLSCVACSN
3. FSMRWTFWYWVN
4. LKILGQKMNHQN
5. KKVKKGQKQKIN

[0.599, 0.0313, 0.416, 0.678, 0.631]

Record protein stability index for all entries; do not skip any.
1. RLICPLPVQFLN
2. PSGAASFWRVVG
3. CTSCGYKFRTNA
4. KKHKVGQKQKIN
5. ARWRVGLGRGAS
6. LKELRQKMNHQN

1. 0.562
2. 0.668
3. 0.697
4. 0.567
5. 0.679
6. 0.673

Record protein stability index for all entries; do not skip any.
1. RLIRPLPVQFLN
2. LKILRQKMNHTN
3. KKHPKGQKQKIN

1. 0.593
2. 0.672
3. 0.684

###

Field: protein stability index. Provide a value for each of the sequences that follow.
System: Saccharomyces cerevisiae
protocol-text: protein stability index of tFT-peptide fusion in wild type (PSI (0-1 scale)); higher = more stable (slower turnover)
condition-label: genetic background: wild type
One number for each entry.

Field: example entries. Status: answers known.
> print(dat)
   entry.sequence  result.value
1    AITLFMCPLLLR         0.364
2    RCIQPLPVQFLN        0.0766
3    FSMRNTFRYWVN        0.0817
4    CLVSLPALLFFR        0.0784
5    LWVYLSCVACIN        0.0149

Record protein stability index for all entries; do not skip any.
1. PSLACSFWRVVG
2. VRGAVGGWRLVG
3. PDKRNHLIKLLI
4. KTHKKGQKQKIN
5. RSLRVLTPLYFR
6. TITLPMCPLLLR
7. AIALPMCPLLLR
8. ARWRVGLWRGASH

1. 0.139
2. 0.161
3. 0.206
4. 0.0924
5. 0.246
6. 0.296
7. 0.231
8. 0.66

###

System: Saccharomyces cerevisiae
protocol-text: protein stability index of tFT-peptide fusion (C-terminal peptide) (PSI (0-1 scale)); higher = more stable (slower turnover)
condition-label: genetic background: wild type; temperature: 30 C
Entry class follows protein stability index: low: < 0.6; mid: ≥ 0.6 and < 0.7; high: ≥ 0.7

Please review the following examples before continuing.
> print(dat)
   entry.sequence  assigned.class
1    VAGFVPSWVALW             mid
2    GGIGYRRQAAQA             mid
3    GGGGVGSSGARV             mid
4    VTHSASFSDVFR            high
5    YKGGDEVKTKKK             mid

Note: place this sequence into its band. Item: GSEVWGSPGFGG
high

Note: place this sequence into its band. Item: DFEVGPMGGFRC
mid

Note: place this sequence into its band. Item: AALSNRGIHWWK
high

Note: place this sequence into its band. Item: FLFIFFFFLISF
low

Note: place this sequence into its band. Item: RKGSVVILGLGL
mid

Note: place this sequence into its band. Item: VRYCFFWVRAVV
low

Note: place this sequence into its band. Item: PPLPSAPSTYPA
mid

Note: place this sequence into its band. Item: GGGGGRSSPGGS
mid

###

Field: protein stability index. Provide a value for each of the sequences that follow.
System: Saccharomyces cerevisiae
protocol-text: protein stability index of tFT-peptide fusion (C-terminal peptide) (PSI (0-1 scale)); higher = more stable (slower turnover)
condition-label: genetic background: das1 deletion; temperature: 30 C
Numbers only.

Field: example entries. Status: answers known.
> print(dat)
                             entry.sequence        reported.property  result.value
1     YLPRSKWFGILV [ALG14 C-terminal 12 aa]  protein stability index         0.359
2  KLMEAIFRIRTI [YKL106C-A C-terminal 12 aa]  protein stability index         0.767
3      ITSLKSDEYLVQ [RET2 C-terminal 12 aa]  protein stability index          0.73
4      LEHGLKVRMDEE [HIS7 C-terminal 12 aa]  protein stability index         0.708
5      WSDKLLQIYARC [SAE2 C-terminal 12 aa]  protein stability index         0.545

Record protein stability index for all entries; do not skip any.
1. KKSPGGPRQRIK [MAP1 C-terminal 12 aa]
2. GLCLCCTLDMLF [YDL012C C-terminal 12 aa]
3. KSVPILLPQVCM [YIL059C C-terminal 12 aa]
4. LQVKAVRAKLDE [ALD4 C-terminal 12 aa]

1. 0.694
2. 0.676
3. 0.594
4. 0.699

###

System: Saccharomyces cerevisiae
protocol-text: protein stability index of tFT-peptide fusion (C-terminal peptide) (PSI (0-1 scale)); higher = more stable (slower turnover)
condition-label: genetic background: doa10 deletion; temperature: 30 C
reported-property: protein stability index

> print(dat)
   entry.sequence               system.name  result.value
1    PDKRNHLIKLLN  Saccharomyces cerevisiae        0.0937
2    QYRLMQKKIVNI  Saccharomyces cerevisiae         0.119
3    RPRVAGLMTLVS  Saccharomyces cerevisiae         0.459
4    SLLFLVLFFPLV  Saccharomyces cerevisiae         0.456
5    LLLSLLVLRFFL  Saccharomyces cerevisiae         0.504
6    CYCSIGCLIIFS  Saccharomyces cerevisiae         0.206
7    VFFFVSFFAFSS  Saccharomyces cerevisiae         0.172
8    KKTKKTMIIKTT  Saccharomyces cerevisiae          0.33

Record protein stability index for all entries; do not skip any.
1. CIIAVMISIVSF
2. EWFFCLGLFRFH
3. GFFFLFFVSAFI
4. FASVFCVVTGYV
5. GGRFVWIVRAVG
6. RVYLLGLFVRSG

1. 0.0269
2. 0.208
3. 0.299
4. 0.406
5. 0.233
6. 0.325

###

Field: protein stability index. Provide a value for each of the sequences that follow.
System: Saccharomyces cerevisiae
protocol-text: protein stability index of tFT-peptide fusion (C-terminal peptide) (PSI (0-1 scale)); higher = more stable (slower turnover)
condition-label: genetic background: wild type; temperature: 30 C
Numbers only.

Field: example entries. Status: answers known.
> print(dat)
   entry.sequence  result.value
1    LSPLPHGLPFST         0.736
2    DTDHSSNCELPG         0.696
3    VCRCWGGKGQDS          0.71
4    PKWSVTPVAANL         0.695
5    GGRRRPVPQGPR         0.649

Record protein stability index for all entries; do not skip any.
1. ARFFPLPIPPRS
2. CGGAQRREGGLG
3. RLPVRSGAMHGC

0.758
0.649
0.665

###

Field: protein stability index. Provide a value for each of the sequences that follow.
Tested on: Saccharomyces cerevisiae
protocol-text: protein stability index of tFT-peptide fusion (C-terminal peptide) (PSI (0-1 scale)); higher = more stable (slower turnover)
condition-label: genetic background: wild type; temperature: 30 C
Numbers only.

Field: example entries. Status: answers known.
> print(dat)
                         entry.sequence  result.value
1  LKQENAYLLIRR [RPB8 C-terminal 12 aa]          0.68
2  LNSIDPALISKY [AFT2 C-terminal 12 aa]         0.741
3  RDLQSALVRQLL [CAD1 C-terminal 12 aa]          0.68

Record protein stability index for all entries; do not skip any.
1. TLKKRFGLVPGQ [NOP10 C-terminal 12 aa]
2. AIRTRKFDNNKR [RED1 C-terminal 12 aa]
3. PAAKGKNLSFKR [RRP6 C-terminal 12 aa]
4. SFALVFKISAEV [YAR053W C-terminal 12 aa]

1. 0.686
2. 0.665
3. 0.709
4. 0.489
